# Tested On: T1, hPRLR.mFc (soluble dimeric human PRLR) (Homo sapiens, UniProt P16471)
# T1 construct: dimeric (hPRLR.mFc)
# T1 sequence (P16471 with tags, fused parts or gaps): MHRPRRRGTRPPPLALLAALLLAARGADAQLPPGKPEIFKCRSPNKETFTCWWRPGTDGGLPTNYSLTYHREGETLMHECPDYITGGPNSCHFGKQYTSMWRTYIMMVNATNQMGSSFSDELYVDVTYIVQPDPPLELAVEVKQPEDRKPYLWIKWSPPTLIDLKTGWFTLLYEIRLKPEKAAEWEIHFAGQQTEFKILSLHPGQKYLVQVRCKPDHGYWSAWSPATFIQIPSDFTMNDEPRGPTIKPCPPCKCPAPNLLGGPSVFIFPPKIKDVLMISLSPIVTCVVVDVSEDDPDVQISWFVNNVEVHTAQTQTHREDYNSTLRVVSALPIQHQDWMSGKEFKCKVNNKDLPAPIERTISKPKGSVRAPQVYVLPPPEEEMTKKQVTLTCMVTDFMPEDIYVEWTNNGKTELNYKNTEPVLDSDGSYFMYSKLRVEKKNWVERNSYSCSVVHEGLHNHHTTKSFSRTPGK
# Procedure Text: Surface plasmon resonance (Biacore T200), mAb-capture format
# Format: binding
# Condition Description: 37° C., antibody-capture format, analyte hPRLR.mFc
Readout Type: T½ (min)
One number for each entry, in min.

Worked set:
1. H1H6967N: human IgG1 Fc form of H2M6967N; anti-PRLR; HCVR/LCVR SEQ ID NOs 354/362 (antibody, V domains shown, human IgG1 Fc) VH: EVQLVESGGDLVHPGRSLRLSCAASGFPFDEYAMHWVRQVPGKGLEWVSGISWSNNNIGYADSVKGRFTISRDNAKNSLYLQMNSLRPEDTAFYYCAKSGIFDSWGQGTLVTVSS VL: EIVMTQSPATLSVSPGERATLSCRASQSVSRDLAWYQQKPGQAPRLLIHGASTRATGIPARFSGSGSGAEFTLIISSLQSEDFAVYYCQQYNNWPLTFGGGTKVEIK	118.8
2. H1H6792P: anti-PRLR antibody, human IgG1 Fc; HCVR/LCVR SEQ ID NOs 130/138 (antibody, V domains shown, human IgG1 Fc) VH: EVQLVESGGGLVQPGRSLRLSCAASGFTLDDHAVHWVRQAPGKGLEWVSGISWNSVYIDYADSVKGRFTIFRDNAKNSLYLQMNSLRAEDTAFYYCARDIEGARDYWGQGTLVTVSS VL: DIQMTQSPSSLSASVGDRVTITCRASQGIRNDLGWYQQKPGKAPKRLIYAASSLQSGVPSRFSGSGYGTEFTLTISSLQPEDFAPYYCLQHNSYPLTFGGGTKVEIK	66
3. H1H6801P: anti-PRLR antibody, human IgG1 Fc; HCVR/LCVR SEQ ID NOs 210/218 (antibody, V domains shown, human IgG1 Fc) VH: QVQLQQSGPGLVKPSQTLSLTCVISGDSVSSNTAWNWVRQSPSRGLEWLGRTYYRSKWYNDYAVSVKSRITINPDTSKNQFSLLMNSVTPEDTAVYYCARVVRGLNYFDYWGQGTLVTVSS VL: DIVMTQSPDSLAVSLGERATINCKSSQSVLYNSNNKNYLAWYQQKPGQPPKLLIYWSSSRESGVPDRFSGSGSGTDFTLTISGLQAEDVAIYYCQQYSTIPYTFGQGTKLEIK	52

Query molecule follows.
Output T½ of H1H6804P: anti-PRLR antibody, human IgG1 Fc; HCVR/LCVR SEQ ID NOs 242/250 (antibody, V domains shown, human IgG1 Fc) VH: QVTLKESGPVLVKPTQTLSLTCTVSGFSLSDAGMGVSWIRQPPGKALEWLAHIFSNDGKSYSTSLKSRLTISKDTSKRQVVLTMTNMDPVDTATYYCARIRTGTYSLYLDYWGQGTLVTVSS VL: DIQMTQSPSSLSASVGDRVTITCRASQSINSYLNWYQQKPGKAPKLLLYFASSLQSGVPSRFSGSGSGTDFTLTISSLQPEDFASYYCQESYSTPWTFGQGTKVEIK
56
